molecules and their reported IC50
Biological target: ROCK2 (human) (UniProt O75116)
Sequence (O75116 whole entry, looked up): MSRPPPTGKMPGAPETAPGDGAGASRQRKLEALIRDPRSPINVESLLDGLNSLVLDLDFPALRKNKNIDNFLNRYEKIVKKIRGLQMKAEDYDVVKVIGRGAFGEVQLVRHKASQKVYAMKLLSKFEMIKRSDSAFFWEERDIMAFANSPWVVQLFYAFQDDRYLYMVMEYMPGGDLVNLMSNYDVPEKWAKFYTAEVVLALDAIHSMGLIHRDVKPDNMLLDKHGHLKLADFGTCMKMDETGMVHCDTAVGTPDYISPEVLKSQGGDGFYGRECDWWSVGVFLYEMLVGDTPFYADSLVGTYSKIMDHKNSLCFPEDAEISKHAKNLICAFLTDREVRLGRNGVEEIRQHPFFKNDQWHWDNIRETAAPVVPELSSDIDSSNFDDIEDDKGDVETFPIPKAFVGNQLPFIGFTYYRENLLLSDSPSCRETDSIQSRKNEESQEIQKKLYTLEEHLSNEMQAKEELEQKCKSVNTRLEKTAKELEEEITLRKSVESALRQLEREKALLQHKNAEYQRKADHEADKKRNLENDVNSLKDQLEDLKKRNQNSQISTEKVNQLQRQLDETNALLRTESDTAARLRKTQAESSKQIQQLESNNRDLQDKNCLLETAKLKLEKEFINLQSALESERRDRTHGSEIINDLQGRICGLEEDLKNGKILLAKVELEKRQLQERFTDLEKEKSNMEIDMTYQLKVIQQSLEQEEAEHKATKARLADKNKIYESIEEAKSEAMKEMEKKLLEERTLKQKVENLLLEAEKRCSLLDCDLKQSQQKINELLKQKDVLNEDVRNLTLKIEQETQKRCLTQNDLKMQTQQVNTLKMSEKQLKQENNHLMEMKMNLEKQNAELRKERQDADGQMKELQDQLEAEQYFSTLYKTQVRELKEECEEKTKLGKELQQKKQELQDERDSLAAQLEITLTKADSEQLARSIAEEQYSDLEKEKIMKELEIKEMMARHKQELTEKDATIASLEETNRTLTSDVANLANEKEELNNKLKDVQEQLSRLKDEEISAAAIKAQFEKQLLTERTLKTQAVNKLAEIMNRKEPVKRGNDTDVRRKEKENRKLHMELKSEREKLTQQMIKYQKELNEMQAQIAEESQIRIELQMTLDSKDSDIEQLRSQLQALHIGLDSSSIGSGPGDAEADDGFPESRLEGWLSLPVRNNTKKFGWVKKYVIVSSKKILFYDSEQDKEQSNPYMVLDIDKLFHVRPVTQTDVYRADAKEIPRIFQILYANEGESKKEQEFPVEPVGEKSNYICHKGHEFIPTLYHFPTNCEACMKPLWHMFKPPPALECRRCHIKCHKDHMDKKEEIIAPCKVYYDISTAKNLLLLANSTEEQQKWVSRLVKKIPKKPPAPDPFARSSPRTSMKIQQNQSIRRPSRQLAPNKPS
Experiment: Inhibition of ROCK2 Kinase Activity

Check out these entries, answers already filled in.
INSERT INTO measurements (molecule, result) VALUES
  ('CC[C@@H](NC(=O)CC(N)c1ccc(C(=O)Nc2ccncc2)cc1)c1ccccc1 (stereo not given in full)', '50 to 500 nM'),
  ('CN(CC(N)c1ccc(C(=O)Nc2ccncc2)cc1)C(=O)C1(c2ccc(F)cc2F)CC1 (stereo not given)', '500 to 5000 nM'),
  ('NC(c1ccc(C(=O)Nc2ccncc2)cc1)C1CCCN1C(=O)Cc1csc(-c2ccccc2)n1 (stereo not given)', '500 to 5000 nM'),
  ('NC(c1ccc(C(=O)Nc2ccncc2)cc1)C1CCCN1C(=O)Cc1cccs1 (stereo not given)', '50 to 500 nM'),
  ('NC(CNC(=O)CC1CCCCC1)c1ccc(C(=O)Nc2ccncc2)cc1 (stereo not given)', '500 to 5000 nM'),
  ('CC(C)(C(=O)NCC(N)c1ccc(C(=O)Nc2ccncc2)cc1)c1ccc(F)cc1 (stereo not given)', '50 to 500 nM');

Note to self: IC50 recorded for NC(CNC(=O)C1(c2ccc(Cl)cc2)CC1)c1ccc(C(=O)Nc2ccncc2)cc1 (stereo not given) was 50 to 500 nM

Note to self: IC50 recorded for NC(CNC(=O)c1csc(Nc2ccc(F)cc2)n1)c1ccc(C(=O)Nc2ccncc2)cc1 (stereo not given) was 500 to 5000 nM

Note to self: IC50 recorded for COc1ccc(CNC(=O)CC(N)c2ccc(C(=O)Nc3ccncc3)cc2)cc1OC (stereo not given) was 50 to 500 nM

Note to self: IC50 recorded for NC(c1ccc(C(=O)Nc2ccncc2)cc1)C1CCCN1C(=O)Cc1ccc2ccccc2c1 (stereo not given) was 500 to 5000 nM
